# Tested on: SRS-A release
# method_notes: Inhibition of SRS-A (leukotriene) release from ovalbumin-challenged sensitized guinea pig lung fragments
# Format: cell-based
# condition_description: Cavia porcellus, 3 × 10^-5 M; sensitized guinea pig lung fragments, ovalbumin challenge, indomethacin present; read-out: Percent Inhibition of SRS-A Release
# Protocol: Male, Hartley guinea pigs, usually 1-2 weeks old were sensitized with respect to ovalbumin by intraperitoneal administration of 0.15 ml hyperimmune serum obtained from guinea pigs actively sensitized against ovalbumin. […] Poorly perfused and bloody areas were discarded. […] Release of SRS-A in the presence of an experimental drug was compared to a control sample and the results expressed as percent inhibition of SRS-A release.
reported_metric: inhibition at 30 µM (%)
The reply should be a number in %, with the unit left off.

Record for COc1ccccc1NC1=CC(=O)c2ncccc2C1=O under target or system SRS-A release: inhibition at 30 µM reported as 38

Record for CNC1=CC(=O)c2ncccc2C1=O under target or system SRS-A release: inhibition at 30 µM reported as 51

Record for O=C1C(NC2CC2)=CC(=O)c2ncccc21 under target or system SRS-A release: inhibition at 30 µM reported as 48

Record for CSc1cccc(NC2=CC(=O)c3ncccc3C2=O)c1 under target or system SRS-A release: inhibition at 30 µM reported as 55

Record for Cc1ccccc1NC1=CC(=O)c2ncccc2C1=O under target or system SRS-A release: inhibition at 30 µM reported as 80

Record for O=C1C(Nc2ccccc2Cl)=CC(=O)c2ncccc21 under target or system SRS-A release: inhibition at 30 µM reported as 78

Record for O=C1C(Nc2ccc(Cl)cc2)=CC(=O)c2ncccc21 under target or system SRS-A release: inhibition at 30 µM reported as 68

Record for CC(C)NC1=CC(=O)c2ncccc2C1=O under target or system SRS-A release: inhibition at 30 µM reported as 28

Record for O=C1C(Nc2cccc(F)c2)=CC(=O)c2ncccc21 under target or system SRS-A release: inhibition at 30 µM reported as 94

Record for O=C1C(N2CCOCC2)=CC(=O)c2ncccc21 under target or system SRS-A release: inhibition at 30 µM reported as 63

Record for CCCN(C1=CC(=O)c2ncccc2C1=O)c1ccccc1 under target or system SRS-A release: inhibition at 30 µM reported as 39

====

For each of the compounds below, state its pKa.
# method_notes: pKa using 66% aqueous dimethylformamide solution
# Type: physicochemical
Number only, please.

Recorded result, COc1cc(N)c2ncccc2c1N , pKa: 5.08

Recorded result, Cc1ccc2c(N)ccc(O)c2n1 [Example 2, 2-methyl-5-amino-8-hydroxyquinoline] , pKa: 5
